Target: C-terminal-binding protein 1 (Homo sapiens)
Experiment: qHTS for Inhibitors of the Phosphatase Activity of Eya2: Carboxyl-terminal binding protein (CtBP) Counterscreen for Cherry-picked Compounds; also: nearly all actives have a fitted effect of over 65% in size
Conditions: purified protein-protein binding, AlphaScreen, 3 h; series mostly up to 46.1 µM
Hit rate of the full screen: of about 1,300 compounds, about 420 (32%) were called active. Roughly 32% stayed inconclusive and do not appear here. Calls follow the shape of the dose curve; as a rule, active = well fitted inhibition curve with a large enough effect; inconclusive = small, poorly fitted or top-dose-only effect; inactive = no such curve, though single readings can be large or run the other way. Some of the results follow.
Write down the outcome that applies. Available outcomes: active, inactive

INSERT INTO results (compound, class_label) VALUES
  ('O=C(c1ccc2c(=O)n3c(nc2c1)CCCCC3)N1CCN(c2cccc(Cl)c2)CC1', 'active'),
  ('CCC(=O)Nc1nc2c(OC)ccc(OC)c2s1', 'inactive'),
  ('CC1=CC(=O)Nc2ncccc2O1', 'active'),
  ('Cc1nn2c(c1-c1ccccc1)NC1=C(C(=O)CCC1)C2c1ccccc1 (stereo unspecified)', 'inactive'),
  ('NC(=O)c1nc(C(=O)N2CCCCC2)c2ccccc2n1', 'inactive');

Please examine the following record next.
Fill in: this test's call for COc1cc(CNC(=O)Nc2nc(C(N)c3ccccc3)cs2)cc(OC)c1OC (stereo unspecified) is ___
active
